target or test system: human 5-HT6 receptor (Homo sapiens, UniProt P50406)
Construct: host or cells: CHO-K1 cells, stably transfected; membranes prepared in house
Sequence (P50406 whole entry): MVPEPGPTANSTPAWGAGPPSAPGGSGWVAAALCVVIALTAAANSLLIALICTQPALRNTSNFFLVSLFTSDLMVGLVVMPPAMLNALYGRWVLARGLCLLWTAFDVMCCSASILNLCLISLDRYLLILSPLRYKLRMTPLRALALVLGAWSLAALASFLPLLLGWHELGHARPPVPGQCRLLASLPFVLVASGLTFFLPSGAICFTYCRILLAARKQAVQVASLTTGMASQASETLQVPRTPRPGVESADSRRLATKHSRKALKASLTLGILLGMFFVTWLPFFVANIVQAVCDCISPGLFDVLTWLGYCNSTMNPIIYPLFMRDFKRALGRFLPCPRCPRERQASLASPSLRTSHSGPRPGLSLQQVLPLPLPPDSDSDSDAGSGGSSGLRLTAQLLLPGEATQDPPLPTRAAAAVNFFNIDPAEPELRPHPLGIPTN
procedure text: Human 5-HT6 Receptor Binding Assay ([3H]LSD displacement, scintillation beads)
study conditions: membranes of CHO-K1 cells with recombinant human 5-HT6, 4 nM [3H]LSD; Table 1, class symbols; read-out: h5-HT6 (Ki)
pKi: −log10 of the molar value.

compound: Cc1cccc(S(=O)(=O)c2ccc3c(c2)OC2CNCCC32C)n1 (racemic)
pKi: < 6.00
--
compound: O=S(=O)(Oc1ccc2c(c1)C1CCNCC1O2)c1ccc(-c2cnco2)cc1 (stereo not drawn)
pKi: < 6.00
--
compound: [O-][S+](c1ccc2c3c(oc2c1)CNCC3)c1ccccc1Cl (stereo not drawn)
pKi: > 6.30
--
compound: CC(C)c1ccc(S(=O)(=O)Oc2ccc3c(c2)OC2CNCCC32)cc1 (stereo not drawn) [Example 794]
pKi: > 6.30
--
compound: COc1cc2c(cc1S(=O)(=O)c1cccc(Cl)c1Cl)C1CCNCC1O2 (stereo not drawn)
pKi: > 6.30
--
compound: O=S(=O)(NCCc1ccccc1)c1ccc2c(c1)C1CCNCC1O2 (stereo not drawn)
pKi: < 6.00
--
compound: O=S(=O)(c1ccc2c3c(oc2c1)CNCC3)c1ccccc1Cl
pKi: > 6.30
--
compound: CC12CCNCC1Oc1ccc(OS(=O)(=O)c3cc4ccccc4o3)cc12 (stereo not drawn) [Example 764]
pKi: 6.00 to 6.30
--
compound: O=S(=O)(c1ccc2c(c1)OC1CNCCC21)c1cccnc1C(F)(F)F (stereo not drawn) [Example 410]
pKi: 6.00 to 6.30

###

The entries below are paired with their reported melting point.
Structures can show the parent of a compound that is named as a salt.

molecule: CCOCC1NCCc2c1oc1cc(S(=O)(=O)c3cccc(F)c3)ccc21 (racemic) (as salt: HCl)
melting point: 230 to 250 °C (dec.)
//
molecule: CC12CCNCC1Oc1ccc(S(=O)(=O)c3cccc(Cl)c3)cc12 (stereo not drawn) [Example 103]
melting point: 218 to 220 °C
//
molecule: CC(C)Oc1cccc(S(=O)(=O)c2ccc3c(c2)OC2CNCCC32)c1F (stereo not drawn) (as salt: HCl) [Example 483]
melting point: 221 to 224 °C

###

Counter-ions that a name gives are not always drawn.
The entries below are paired with their reported melting point.

molecule: CC1(CN)NCCc2c1oc1cc(S(=O)(=O)c3cccc(F)c3)ccc21 (centres unmarked) [Example 493]
melting point: > 250 °C (dec.)
--
molecule: O=S(=O)(c1cccc(OCc2ccccc2)c1)c1ccc2c(c1)OC1CNCCC21 (centres unmarked) [Example 74]
melting point: 238 to 240 °C
--
molecule: CC(C)Oc1cc(OCCO)cc(S(=O)(=O)c2ccc3c(c2)OC2CNCCC32)c1 (centres unmarked) (as salt: HCl) [Example 590]
melting point: 205 to 208 °C
--
molecule: O=S(=O)(c1ccc2c(c1)OC1CNCCC21)c1nc2ccccc2s1 (centres unmarked) [Example 65]
melting point: 195 to 196 °C
--
molecule: COCCCOc1cc(OC(C)C)cc(S(=O)(=O)c2ccc3c(c2)OC2CNCCC32)c1 (centres unmarked) (as salt: HCl) [Example 588]
melting point: 164 to 166 °C
--
molecule: CC12CCNCC1Oc1ccc(S(=O)(=O)c3ccc(F)cc3F)cc12 (centres unmarked) [Example 93]
melting point: 215 to 216 °C
--
molecule: CC12CCNCC1Oc1cc(S(=O)(=O)c3ncccn3)ccc12 (racemic) (as salt: HCl) [Example 9]
melting point: 232 to 234 °C
--
molecule: O=S(=O)(c1cccc(-n2cnnn2)c1)c1ccc2c(c1)OC1CNCCC21 (centres unmarked) [Example 75]
melting point: > 300 °C

###

Counter-ions that a name gives are not always drawn.

compound: CC(C)Oc1cccc(S(=O)(=O)c2ccc3c4c(oc3c2)C2(CCOCC2)NCC4)c1 (as salt: HCl)
melting point: 250 °C (dec.)
//
compound: CC12CCNCC1Oc1cc(S(=O)(=O)c3cccc(F)c3)ccc12 (racemic) (as salt: HCl)
melting point: 288 to 290 °C
//
compound: O=S(=O)(c1cccc(OCC(F)F)c1)c1ccc2c(c1)OC1CNCCC21 (stereo not shown) (as salt: HCl)
melting point: 263 to 266 °C
//
compound: CC1(C)NCCc2c1oc1cc(S(=O)(=O)c3cccc(Cl)c3)ccc21 (as salt: HCl)
melting point: > 200 °C (dec.)
//
compound: COc1cc(OC2CCCC2)cc(S(=O)(=O)c2ccc3c(c2)OC2CNCCC32)c1 (stereo not shown) (as salt: HCl)
melting point: 239 to 241 °C
//
compound: O=S(=O)(c1cccc(F)c1)c1ccc2c3c(oc2c1)C1(CCC1)NCC3 (as salt: HCl)
melting point: > 200 °C (dec.)
//
compound: CCOc1cccc(S(=O)(=O)c2ccc3c(c2)OC2CNCCC32C)c1 (racemic) (as salt: HCl)
melting point: 271 to 273 °C

###

The entries below are paired with their reported pKi.
target or test system: human 5-HT6 receptor (Homo sapiens, UniProt P50406)
Construct: host or cells: CHO-K1 cells, stably transfected; membranes prepared in house
procedure text: Human 5-HT6 Receptor Binding Assay ([3H]LSD displacement, scintillation beads)
study conditions: membranes of CHO-K1 cells with recombinant human 5-HT6, 4 nM [3H]LSD; Table 1, class symbols; read-out: h5-HT6 (Ki)
pKi: −log10 of the molar value.

molecule: O=S(=O)(c1ccc(Cl)cc1)c1ccc2c(c1)C1CCNCC1O2 (stereo not drawn) [Example 335]
pKi: < 6.00
--
molecule: CC1(C)CNC2(CCOC2)c2oc3cc([S+]([O-])c4cncc(Cl)c4)ccc3c21 (stereo not drawn) [Example 455]
pKi: < 6.00
--
molecule: O=S(=O)(c1cc(F)cc(OCC(F)(F)F)c1)c1ccc2c(c1)OC1CNCCC21 (stereo not drawn) [Example 403]
pKi: > 6.30
--
molecule: O=S(=O)(c1ccc2oc3c(c2c1)CCNC3)c1ccccc1Cl [Example 276]
pKi: > 6.30
--
molecule: CC(C)Oc1cccc(S(=O)(=O)c2ccc3c4c(oc3c2)C2(CCC2)NCC4)c1 [Example 26]
pKi: > 6.30
--
molecule: Cc1cccc(S(=O)(=O)c2ccc3c4c(oc3c2)CNCC4)n1 [Example 343]
pKi: > 6.30
--
molecule: O=S(=O)(c1ccc(F)cc1)c1ccc2oc3c(c2c1)CCNC3 [Example 264]
pKi: > 6.30
--
molecule: O=S(=O)(c1cccc(F)c1)c1ccc2c(c1)OC1CNCCC21 (stereo not drawn) [Example 117]
pKi: > 6.30
--
molecule: COC(=O)CCCCOc1cccc(S(=O)(=O)c2ccc3c(c2)OC2CNCCC32)c1 (stereo not drawn) [Example 556]
pKi: > 6.30

###

target or test system: human 5-HT6 receptor (Homo sapiens, UniProt P50406)
Construct: host or cells: CHO-K1 cells, stably transfected; membranes prepared in house
procedure text: Human 5-HT6 Receptor Binding Assay ([3H]LSD displacement, scintillation beads)
study conditions: membranes of CHO-K1 cells with recombinant human 5-HT6, 4 nM [3H]LSD; Table 1, class symbols; read-out: h5-HT6 (Ki)
pKi: −log10 of the molar value. Structures can show the parent of a compound that is named as a salt.

compound: COc1ccc(S(=O)(=O)c2ccc3c(c2)OC2CNCCC32)cc1F (stereo not drawn)
pKi: 6.00 to 6.30

compound: O=S(=O)(c1ccccc1)c1ccc2c3c(oc2c1)CN(CCc1ccccc1)CC3
pKi: > 6.30

compound: CC12CCNCC1Oc1cc(S(=O)(=O)c3ccc(F)cc3)ccc12 (stereo not drawn)
pKi: 6.00 to 6.30

compound: CC12CCNCC1Oc1ccc(OS(=O)(=O)c3ccccc3)cc12 (stereo not drawn)
pKi: < 6.00

compound: O=S(=O)(Oc1ccc2c(c1)OC1CNCCC21)c1ccc(-c2ccon2)s1 (stereo not drawn)
pKi: > 6.30

compound: O=S(=O)(c1cccc(F)c1)c1ccc2c3c(oc2c1)C1(CCOC1)NCC3 (single isomer, unassigned) [Example 53]
pKi: > 6.30

compound: O=S(=O)(c1ccc2c(c1)OC1CNCCC21)c1cccnc1C(F)(F)F (stereo not drawn) [Example 423]
pKi: > 6.30

compound: Cc1cc(S(=O)(=O)c2ccc3c(c2)OC2CNCCC32)ccc1F (stereo not drawn)
pKi: > 6.30

compound: CN(C)C(=O)c1c(F)cccc1S(=O)(=O)c1ccc2c(c1)OC1CNCCC21 (stereo not drawn)
pKi: < 6.00

compound: COc1cccc(NS(=O)(=O)c2ccc3c(c2)C2CCNCC2O3)c1 (stereo not drawn)
pKi: < 6.00

compound: O=S(=O)(c1ccc(F)cc1)c1ccc2c3c(oc2c1)CNCC3
pKi: > 6.30

compound: O=S(=O)(c1ccc2c3c(oc2c1)CNCC3)c1cccc(F)c1F
pKi: > 6.30

compound: CC(C)(C)c1ccc(S(=O)(=O)Oc2ccc3c(c2)C2(C)CCNCC2O3)cc1 (stereo not drawn)
pKi: < 6.00

compound: O=S(=O)(c1ccc2c(c1)OC1CNCCC21)c1cccc(Cl)c1Cl (stereo not drawn) [Example 162]
pKi: > 6.30

compound: O=S(=O)(c1cc(F)cc(F)c1)c1ccc2c3c(oc2c1)CNCC3 [Example 107, hydrochloride]
pKi: > 6.30

compound: O=S(=O)(c1ccc2c(c1)OC1CNCCC21)c1ccccc1-c1ccccc1 (stereo not drawn) [Example 153]
pKi: > 6.30

compound: O=S(=O)(c1cccc(F)c1)c1ccc2oc3c(c2c1)CCNC3
pKi: > 6.30

compound: CC12CCNCC1Oc1ccc(OS(=O)(=O)c3ccc(-c4cnco4)cc3)cc12 (stereo not drawn)
pKi: < 6.00
